Where do these numbers come from? They come from ChEMBL document CHEMBL3885861.

species: Rattus norvegicus; assay: Open TG-GATES - Regimen: Daily Repeat; type: toxicity, organism-based, Sprague-Dawley; set-up: regimen Daily Repeat, gender Male, age 6 weeks; conditions: in vivo, po, 300 mg/kg, […], tissue Blood, route gavage, dose level Middle, time 7 day
Outcome measure: WBC

Recorded WBC, per entry:
- Molecule: "NC(N)=Nc1nc(CSCCC(N)=NS(N)(=O)=O)cs1 [FAMOTIDINE]"
  Experimental value: "85.9 x10_2/uL"
- Molecule: "COC1=CC(=O)C[C@@H](C)[C@]12Oc1c(Cl)c(OC)cc(OC)c1C2=O [GRISEOFULVIN]"
  Experimental value: "118 x10_2/uL"
- Molecule: "CCOC(=O)CCC(=O)O[C@H]1[C@H](O[C@@H]2[C@@H](C)[C@H](O[C@H]3C[C@@](C)(OC)[C@@H](O)[C@H](C)O3)[C@@H](C)C(=O)O[C@H](CC)[C@@](C)(O)[C@H](O)[C@@H](C)C(=O)[C@H](C)C[C@@]2(C)O)O[C@H](C)C[C@@H]1N(C)C [ERYTHROMYCIN ETHYLSUCCINATE]"
  Experimental value: "86.1 x10_2/uL"
- Molecule: "COc1ccc2[nH]c([S+]([O-])Cc3ncc(C)c(OC)c3C)nc2c1 (stereo not given) [OMEPRAZOLE]"
  Experimental value: "98.4 x10_2/uL"

// moving on: another record for WBC
Exercise: Look at this molecule and give its reported WBC. CCOc1ccc(NC(=O)CC(C)O)cc1 (stereo not given) [BUCETIN]
Key: 107.3 x10_2/uL

---

As shown below, each of these compounds has a reported Plat value.
species on record: Rattus norvegicus; test: Open TG-GATES - Regimen: Single; type: toxicity, organism-based, Sprague-Dawley; parameters: regimen Single, gender Male, age 6 weeks; conditions: in vivo, po, 100 mg/kg, 6 h, tissue Blood, route gavage, dose level Low
Numbers only here, please. The scale is x10_4/uL.

- Compound: "COC1=CC(=O)C[C@@H](C)[C@]12Oc1c(Cl)c(OC)cc(OC)c1C2=O"
  Outcome measure: "Plat"
  Experimental value: 135.7
- Compound: "NC(N)=Nc1nc(CSCCC(N)=NS(N)(=O)=O)cs1"
  Outcome measure: "Plat"
  Experimental value: 120.7
- Compound: "CCOC(=O)CCC(=O)O[C@H]1[C@H](O[C@@H]2[C@@H](C)[C@H](O[C@H]3C[C@@](C)(OC)[C@@H](O)[C@H](C)O3)[C@@H](C)C(=O)O[C@H](CC)[C@@](C)(O)[C@H](O)[C@@H](C)C(=O)[C@H](C)C[C@@]2(C)O)O[C@H](C)C[C@@H]1N(C)C [ERYTHROMYCIN ETHYLSUCCINATE]"
  Outcome measure: "Plat"
  Experimental value: 118.8

Now look at this entry.
Exercise: Recorded Plat of COc1ccc2[nH]c([S+]([O-])Cc3ncc(C)c(OC)c3C)nc2c1 (centres undefined) , please.
Key: 114.2

---

organism: Rattus norvegicus; assay: Open TG-GATES - Regimen: Daily Repeat; assay type: toxicity, organism-based, Sprague-Dawley; parameters: regimen Daily Repeat, gender Male, age 6 weeks; details: in vivo, po, 1000 mg/kg, […], tissue Plasma, route gavage, dose level High, time 7 day
A collection of compounds and their measured ALT
Give the value in IU/L but do not write IU/L after it.

Completed entries (count: 4):
- Compound: "COC1=CC(=O)C[C@@H](C)[C@]12Oc1c(Cl)c(OC)cc(OC)c1C2=O [GRISEOFULVIN]"
  Readout unit: "IU/L"
  ALT: 31.6
- Compound: "CCOc1ccc(NC(=O)CC(C)O)cc1 (stereo not given) [BUCETIN]"
  Readout unit: "IU/L"
  ALT: 50
- Compound: "CCOC(=O)CCC(=O)O[C@H]1[C@H](O[C@@H]2[C@@H](C)[C@H](O[C@H]3C[C@@](C)(OC)[C@@H](O)[C@H](C)O3)[C@@H](C)C(=O)O[C@H](CC)[C@@](C)(O)[C@H](O)[C@@H](C)C(=O)[C@H](C)C[C@@]2(C)O)O[C@H](C)C[C@@H]1N(C)C [ERYTHROMYCIN ETHYLSUCCINATE]"
  Readout unit: "IU/L"
  ALT: 35.2
- Compound: "NC(N)=Nc1nc(CSCCC(N)=NS(N)(=O)=O)cs1 [FAMOTIDINE]"
  Readout unit: "IU/L"
  ALT: 36.6

Exercise: Fill in the blank: the reported ALT of CC(C)OC(=O)C(C)(C)Oc1ccc(C(=O)c2ccc(Cl)cc2)cc1 [FENOFIBRATE] is ____.
Key: 45.8

---

Listed next: entries and their corresponding BUN.
species on record: Rattus norvegicus; assay: Open TG-GATES - Regimen: Single; format: toxicity, organism-based, Sprague-Dawley; design: regimen Single, gender Male, age 6 weeks; conditions: in vivo, po, 100 mg/kg, 9 h, tissue Plasma, route gavage, dose level Low
Answer in mg/dL, number only, no unit symbol.

Known BUN results, listed for orientation:
- Molecule: "COc1ccc2[nH]c([S+]([O-])Cc3ncc(C)c(OC)c3C)nc2c1 (centres undefined) [OMEPRAZOLE]"
  Readout unit: "mg/dL"
  BUN: 9
- Molecule: "COC1=CC(=O)C[C@@H](C)[C@]12Oc1c(Cl)c(OC)cc(OC)c1C2=O [GRISEOFULVIN]"
  Readout unit: "mg/dL"
  BUN: 9.8
- Molecule: "NC(N)=Nc1nc(CSCCC(N)=NS(N)(=O)=O)cs1 [FAMOTIDINE]"
  Readout unit: "mg/dL"
  BUN: 10.2

Exercise: So what does the record say about BUN for CCOC(=O)CCC(=O)O[C@H]1[C@H](O[C@@H]2[C@@H](C)[C@H](O[C@H]3C[C@@](C)(OC)[C@@H](O)[C@H](C)O3)[C@@H](C)C(=O)O[C@H](CC)[C@@](C)(O)[C@H](O)[C@@H](C)C(=O)[C@H](C)C[C@@]2(C)O)O[C@H](C)C[C@@H]1N(C)C [ERYTHROMYCIN ETHYLSUCCINATE] ?
Key: 12.4

---

species on record: Rattus norvegicus; assay: Open TG-GATES - Regimen: Daily Repeat; assay type: toxicity, organism-based, Sprague-Dawley; design: regimen Daily Repeat, gender Male, age 6 weeks; conditions: in vivo, po, 10 mg/kg, 72 h, tissue Plasma, route gavage, dose level Low, time 3 day
Outcome measure: AST (IU/L)
Reply numerically in IU/L, unit not repeated.

Below, 3 compounds whose answers are already recorded.
- Compound: "CN(C)CCCN1c2ccccc2CCc2ccccc21 [IMIPRAMINE]"
  AST, IU/L: 67
- Compound: "CN(C)CCN(Cc1cccs1)c1ccccn1"
  AST, IU/L: 72.2
- Compound: "CC1=C(/C=C/C(C)=C/C=C/C(C)=C/CO)C(C)(C)CCC1 [RETINOL]"
  AST, IU/L: 82

Exercise: Need AST of CC(C)OC(=O)C(C)(C)Oc1ccc(C(=O)c2ccc(Cl)cc2)cc1 [FENOFIBRATE] , thanks.
Key: 76.6

---

species: Rattus norvegicus; assay: Open TG-GATES - Regimen: Single; format: toxicity, organism-based, Sprague-Dawley; set-up: regimen Single, gender Male, age 6 weeks; conditions: in vivo, po, 30 mg/kg, 9 h, tissue Blood, route gavage, dose level Middle
Outcome measure: MCV (fL)
Give the quantity in fL, number only.

Some entries whose results are on file:
- Sample smiles: "CN(C)CCN(Cc1cccs1)c1ccccn1"
  Experimental value: 63.1
- Sample smiles: "CC1=C(/C=C/C(C)=C/C=C/C(C)=C/CO)C(C)(C)CCC1"
  Experimental value: 61.8
- Sample smiles: "CN(C)CCCN1c2ccccc2CCc2ccc(Cl)cc21"
  Experimental value: 62.6

Shift focus to the following entry.
Exercise: GET /values?readout=MCV&item= "CN(C)CCCN1c2ccccc2CCc2ccccc21"
Key: 65.8

---

// reported ALT per item
species: Rattus norvegicus; assay: Open TG-GATES - Regimen: Single; format: toxicity, organism-based, Sprague-Dawley; design: regimen Single, gender Male, age 6 weeks; conditions: in vivo, po, 100 mg/kg, 6 h, tissue Plasma, route gavage, dose level Low
Write it as a number; the unit IU/L goes unstated.

Worked examples, 3 molecules total:
- Molecule: "COc1ccc2[nH]c([S+]([O-])Cc3ncc(C)c(OC)c3C)nc2c1 (centres undefined) [OMEPRAZOLE]"
  ALT, IU/L: 32
- Molecule: "COC1=CC(=O)C[C@@H](C)[C@]12Oc1c(Cl)c(OC)cc(OC)c1C2=O [GRISEOFULVIN]"
  ALT, IU/L: 38.6
- Molecule: "NC(N)=Nc1nc(CSCCC(N)=NS(N)(=O)=O)cs1 [FAMOTIDINE]"
  ALT, IU/L: 34.2

Exercise: Look at this molecule and give its reported ALT. CCOC(=O)CCC(=O)O[C@H]1[C@H](O[C@@H]2[C@@H](C)[C@H](O[C@H]3C[C@@](C)(OC)[C@@H](O)[C@H](C)O3)[C@@H](C)C(=O)O[C@H](CC)[C@@](C)(O)[C@H](O)[C@@H](C)C(=O)[C@H](C)C[C@@]2(C)O)O[C@H](C)C[C@@H]1N(C)C [ERYTHROMYCIN ETHYLSUCCINATE]
Key: 40.2
